# target.system: hGIP-R (Homo sapiens, UniProt P48546)
# Construct: expressed in transfected cells; host or cells: HEK-293 clonal cell lines
# Sequence (P48546 22-466): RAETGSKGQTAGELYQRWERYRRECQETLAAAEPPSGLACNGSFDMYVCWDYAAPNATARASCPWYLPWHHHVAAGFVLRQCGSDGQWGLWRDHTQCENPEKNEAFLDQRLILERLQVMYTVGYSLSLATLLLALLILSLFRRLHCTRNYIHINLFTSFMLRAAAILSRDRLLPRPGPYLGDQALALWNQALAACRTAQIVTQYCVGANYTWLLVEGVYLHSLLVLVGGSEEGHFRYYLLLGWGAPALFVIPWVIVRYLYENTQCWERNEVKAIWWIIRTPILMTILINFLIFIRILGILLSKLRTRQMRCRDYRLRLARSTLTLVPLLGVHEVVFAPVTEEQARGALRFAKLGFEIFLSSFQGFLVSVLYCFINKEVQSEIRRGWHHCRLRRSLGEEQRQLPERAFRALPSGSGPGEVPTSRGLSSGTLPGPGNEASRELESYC
# assay.details: Functional hGIP-R Assay (cAMP formation, HTRF)
# Assay type: cell-based
# experimental.context: cAMP efficacy; percent of maximal response to GIP(1-42)OH; 37° C., 0.1% bovine casein; arithmetic mean ± SEM
# Emax annotations
Give your result in % as a bare value.

Prompt line: State its Emax on hGIP-R (Homo sapiens, UniProt P48546): Cn1cc(C[C@@H](NC(=O)[C@H]2C[C@@H]2c2ccc(-c3cnc4nn(C)cc4c3)cc2)C(=O)NC(C)(C)Cn2nc(C(F)(F)F)cc2-c2cnn3c2CNCC3)cn1
Response line: 104

Prompt line: Thanks! And CN1CC(n2cc3cc(-c4ccc([C@H]5C[C@@]56CCN([C@H](Cc5cnn(C(F)F)c5)C(=O)NC(C)(C)Cn5nc(C(F)(F)F)cc5-c5cc(F)c(=O)n(C)c5)C6=O)c(F)c4)cnc3n2)C1 (single isomer, unassigned; isomer 1) ?
Response line: 77.3

Prompt line: Thanks! And Cc1nc(-c2ccc(C(C)(C)O)nc2)ccc1[C@H]1C[C@@]12CCN([C@H](Cc1cnn(C(F)F)c1)C(=O)NC(C)(C)Cn1nc(C(F)(F)F)cc1-c1ccn(C3CC3)c(=O)c1)C2=O ?
Response line: 25.1

Prompt line: Thanks! And Cn1cc2cc(-c3ccc(C4CC45CCN([C@H](Cc4cnn(C(F)F)c4)C(=O)NC(C)(C)Cn4nc(C(F)(F)F)cc4-c4cc(F)c(=O)n(C)c4)C5=O)c(C(F)F)c3)cnc2n1 (single isomer, unassigned; isomer 2) ?
Response line: 73.3

Prompt line: Thanks! And CN(C(=O)[C@H]1C[C@@H]1c1ccc(-c2cnc3nn(C)cc3c2)cc1)[C@H](Cc1cnn(C)c1)C(=O)NC(C)(C)Cn1nc(C(F)(F)F)cc1-c1cccc(=O)[nH]1 ?
Response line: 108

Prompt line: Thanks! And Cn1cc2cc(-c3ccc([C@H]4C[C@@]45CCN([C@H](Cc4cnn(C(F)F)c4)C(=O)NC(C)(C)Cn4nc(C(F)(F)F)cc4-c4ccn(C(F)F)c(=O)c4)C5=O)c(F)c3)cnc2n1 ?
Response line: 57.4

Prompt line: Thanks! And Cc1cn2cc(-c3ccc([C@H]4C[C@@]45CCN([C@H](Cc4cnn(C(F)F)c4)C(=O)NC(C)(C)Cn4nc(C(F)(F)F)cc4-c4ccc(=O)n(COP(=O)(O)O)n4)C5=O)c(Cl)c3)cnc2n1 ?
Response line: 89.5

Prompt line: Thanks! And CC(C)(Cn1cc(C(F)(F)F)cn1)NC(=O)[C@@H](Cc1cnc2ncccn12)NC(=O)[C@H]1C[C@@H]1c1ccc(-c2cnc3nc(C(C)(F)F)cn3c2)cc1 ?
Response line: 109

Prompt line: Thanks! And COc1ncc(-c2ccc([C@H]3C[C@@]34CCN([C@H](Cc3cnn(C(F)F)c3)C(=O)NC(C)(C)Cn3nc(C(F)(F)F)cc3-c3ccn(C5CC5)c(=O)c3)C4=O)c(C)n2)cc1F ?
Response line: 13.4

Prompt line: Thanks! And Cn1cc2cc(-c3ccc([C@H]4C[C@@H]4C(=O)N[C@H](Cc4cnn(C(F)F)c4)C(=O)NC(C)(C)Cn4nc(C(F)(F)F)cc4Br)cc3)cnc2n1 ?
Response line: 106

Data provenance: patent US20260108546A1
